- TESTED_ON: JAK2 (Homo sapiens, UniProt O60674)
- Construct: purchased Carna Biosciences
- Sequence (O60674 whole entry): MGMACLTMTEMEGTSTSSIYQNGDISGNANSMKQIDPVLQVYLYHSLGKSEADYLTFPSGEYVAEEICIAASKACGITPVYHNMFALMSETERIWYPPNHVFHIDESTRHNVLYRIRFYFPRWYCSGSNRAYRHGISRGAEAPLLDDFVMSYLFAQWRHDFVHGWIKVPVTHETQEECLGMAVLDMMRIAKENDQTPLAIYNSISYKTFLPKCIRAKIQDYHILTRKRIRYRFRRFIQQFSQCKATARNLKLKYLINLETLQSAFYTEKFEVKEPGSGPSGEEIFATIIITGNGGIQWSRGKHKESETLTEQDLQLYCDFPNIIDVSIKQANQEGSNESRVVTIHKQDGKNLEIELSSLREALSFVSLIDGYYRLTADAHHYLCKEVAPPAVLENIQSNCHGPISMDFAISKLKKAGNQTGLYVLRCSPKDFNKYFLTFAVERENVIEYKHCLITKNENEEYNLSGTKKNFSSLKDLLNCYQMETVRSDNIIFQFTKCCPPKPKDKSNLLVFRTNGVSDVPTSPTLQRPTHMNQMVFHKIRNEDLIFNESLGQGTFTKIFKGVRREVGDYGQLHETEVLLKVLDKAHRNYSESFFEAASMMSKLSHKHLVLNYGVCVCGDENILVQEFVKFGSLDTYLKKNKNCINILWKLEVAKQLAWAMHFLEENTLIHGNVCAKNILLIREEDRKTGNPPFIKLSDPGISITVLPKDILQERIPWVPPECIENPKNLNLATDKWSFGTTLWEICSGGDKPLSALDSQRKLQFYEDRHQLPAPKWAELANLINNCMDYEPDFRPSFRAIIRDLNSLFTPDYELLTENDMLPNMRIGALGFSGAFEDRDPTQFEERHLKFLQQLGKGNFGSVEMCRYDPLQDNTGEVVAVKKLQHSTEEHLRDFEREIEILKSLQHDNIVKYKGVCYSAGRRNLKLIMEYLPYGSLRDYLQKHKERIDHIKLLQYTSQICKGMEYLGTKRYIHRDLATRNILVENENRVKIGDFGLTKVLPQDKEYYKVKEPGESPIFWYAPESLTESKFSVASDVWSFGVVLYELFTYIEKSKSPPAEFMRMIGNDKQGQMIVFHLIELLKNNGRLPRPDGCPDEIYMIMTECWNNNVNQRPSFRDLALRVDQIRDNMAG
- TEST_SUMMARY: JAK2 microfluidic kinase assay (Caliper EZ Reader II, FAM labeled peptide substrate)
- Format: biochemical
- CONDITION_SET: (0.25 nM), 1 mM ATP; Table 2; read-out: IC50 JAK2 (0.25 nM) (1 mM ATP)
pIC50: −log10 of the molar value.
ENDPOINT_NAME: pIC50

Example results:
* Cn1cc(Nc2ncc(Cl)c(-c3ccc(OCC(C)(C)C#N)cc3)n2)cn1 | 8.47
* Cc1cnc(Nc2cnn(C3CC3)c2)nc1-c1ccc(NCC2(C#N)CC2)cc1 | 7.56
* Cc1cnc(Nc2cnn(C3CC3)c2)nc1-c1ccc(NCC(C)(C)C#N)c(F)c1 | 9.13
* Cc1cnc(Nc2cnn(CC#N)c2)nc1-c1ccc(OCC(C)(C)C#N)c(F)c1 | 9.52

[a] Cc1cnc(Nc2cnn(C3CC3)c2)nc1-c1ccc(OCC(C)(C)C#N)cc1
[b] Cc1cnc(Nc2cnn(CC#N)c2)nc1-c1ccc(OCC2(C#N)CC2)c(F)c1
### Prompt When the recorded pIC50 values are compared, which is smaller: that of a or that of b ? Refer to your chosen item by its label in the answer.
### Response b

###

- TESTED_ON: TYK2 (Homo sapiens, UniProt P29597)
- Construct: purchased Carna Biosciences
- Sequence (P29597 whole entry): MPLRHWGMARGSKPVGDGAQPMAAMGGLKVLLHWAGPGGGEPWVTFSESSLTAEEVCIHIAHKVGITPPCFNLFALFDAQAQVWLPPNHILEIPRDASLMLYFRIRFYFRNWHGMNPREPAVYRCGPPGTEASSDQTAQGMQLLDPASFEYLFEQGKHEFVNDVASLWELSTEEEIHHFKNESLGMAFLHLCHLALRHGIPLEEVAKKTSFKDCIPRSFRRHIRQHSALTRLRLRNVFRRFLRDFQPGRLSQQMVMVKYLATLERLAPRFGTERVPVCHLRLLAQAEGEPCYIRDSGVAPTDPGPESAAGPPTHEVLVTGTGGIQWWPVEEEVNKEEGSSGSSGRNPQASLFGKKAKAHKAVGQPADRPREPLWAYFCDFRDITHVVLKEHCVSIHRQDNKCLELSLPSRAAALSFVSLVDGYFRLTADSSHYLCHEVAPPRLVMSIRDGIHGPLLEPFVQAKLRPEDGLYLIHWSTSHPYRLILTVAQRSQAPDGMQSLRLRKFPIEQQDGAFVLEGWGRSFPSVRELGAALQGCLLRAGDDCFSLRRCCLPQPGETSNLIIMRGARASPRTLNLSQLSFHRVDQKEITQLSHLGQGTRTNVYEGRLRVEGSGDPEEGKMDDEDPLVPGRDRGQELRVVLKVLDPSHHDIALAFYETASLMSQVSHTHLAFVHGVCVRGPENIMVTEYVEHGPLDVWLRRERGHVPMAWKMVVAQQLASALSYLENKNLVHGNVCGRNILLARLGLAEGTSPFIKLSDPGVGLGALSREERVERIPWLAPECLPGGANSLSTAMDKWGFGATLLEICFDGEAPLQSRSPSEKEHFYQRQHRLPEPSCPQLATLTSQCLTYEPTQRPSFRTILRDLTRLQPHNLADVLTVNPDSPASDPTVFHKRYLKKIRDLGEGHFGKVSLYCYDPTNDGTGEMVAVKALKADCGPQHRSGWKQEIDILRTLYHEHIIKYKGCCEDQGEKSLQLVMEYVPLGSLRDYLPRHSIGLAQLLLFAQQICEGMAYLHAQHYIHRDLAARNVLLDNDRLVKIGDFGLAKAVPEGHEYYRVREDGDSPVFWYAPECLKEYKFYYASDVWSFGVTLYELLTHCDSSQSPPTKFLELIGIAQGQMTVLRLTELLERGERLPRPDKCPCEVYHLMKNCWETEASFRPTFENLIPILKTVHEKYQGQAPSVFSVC
- TEST_SUMMARY: TYK2 microfluidic kinase assay (Caliper EZ Reader II, FAM labeled peptide substrate)
- Type: biochemical
- CONDITION_SET: (2.5 nM), 1 mM ATP; Table 2; read-out: IC50 TYK2 (2.5 nM) (1 mM ATP)
pIC50: −log10 of the molar value.
ENDPOINT_NAME: pIC50

Example results:
* Cc1cnc(Nc2cnn(C3CC3)c2)nc1-c1ccc(OCC2(C#N)CC2)c(F)c1 [Example 5] | 8.49
* Cn1cc(Nc2ncc(Cl)c(-c3ccc(OCC(C)(C)C#N)cc3)n2)cn1 [Example 29] | 7.38
* Cc1cnc(Nc2cnn(C3CCOCC3)c2)nc1-c1ccc(OCC2(C#N)CC2)nc1 [Example 14] | 6.45
* Cc1cnc(Nc2cnn(C3CC3)c2)nc1-c1ccc(OCC2(C#N)CC2)nc1 [Example 11] | 6.66

[1] CC(C)(C#N)COc1ccc(-c2nc(Nc3cnn(C4CC4)c3)ncc2Cl)cc1 [Example 32]
[2] Cc1cnc(Nc2cnn(C3CC3)c2)nc1-c1ccc(N(C)CC2(C#N)CC2)c(F)c1 [Example 33]
[3] Cc1cnc(Nc2cnn(C(C)C(F)(F)F)c2)nc1-c1ccc(OCC(C)(C)C#N)c(F)c1 (stereo not shown) [Example 40]
[4] N#CC1(CNc2ccc(-c3nc(Nc4cnn(C5CCNCC5)c4)ncc3Cl)cc2)CC1 [Example 44]
### Prompt Sort the 4 compounds by pIC50; largest first, smallest last. Output spec: a listing of the labels in the requested order.
### Response 3, 2, 1, 4
(3: 8.75, 2: 7.52, 1: 6.97, 4: 6.76)

###

- TESTED_ON: TYK2 (Homo sapiens, UniProt P29597)
- Construct: purchased Carna Biosciences
- TEST_SUMMARY: TYK2 microfluidic kinase assay (Caliper EZ Reader II, FAM labeled peptide substrate)
- Format: biochemical
- CONDITION_SET: (2.5 nM), 1 mM ATP; Table 3B, literature compounds; read-out: TYK2 (2.5 nM) (1 mM ATP)
pIC50: −log10 of the molar value.
ENDPOINT_NAME: pIC50

* CCOc1ccc(-c2nc(Nc3cnn(C)c3)ncc2C)cc1F [Example 46, reference compound] | 7.13

[1] CCOc1ccc(-c2nc(Nc3cnn(C)c3)ncc2C)cc1 [Example 50, reference compound]
[2] CCOc1ccc(-c2nc(Nc3cnn(C(C)C)c3)ncc2C)cc1F [Example 49, reference compound]
### Prompt Rank 1 against 2 by their pIC50 values and give the higher one. Refer to your chosen item by its label in the answer.
### Response 2
